Assay: Permeability of the compound by PAMPA
Assay type: physicochemical
Conditions: read-out: permeability
readoutName: Papp (×10⁻⁶ cm/s)
Express it in ×10⁻⁶ cm/s; write the number only.

## Input Given the compound Cc1c(NC(=O)c2ccc(C(C)(C)C)cc2)cccc1-c1nc(Nc2ccc(C(=O)N3CCOCC3)cc2)c2nc[nH]c2n1 , write its reported Papp.
## Output 40.3

====

Test: Apparent permeability from basolateral to apical side of human Caco2 cells
Assay type: ADME, cell-based
Settings: Caco-2
readoutName: Papp B→A

## Input Answer with the recorded Papp B→A of Cc1c(NC(=O)c2ccc(C(C)(C)C)cc2)cccc1-c1nc(Nc2ccc(C(=O)N3CCOCC3)cc2)c2nc[nH]c2n1 only.
## Output < 1.5 ×10⁻⁶ cm/s

====

Assay: Cmax in CD1 mouse at 30 mg/kg, ip
Format: ADME, organism-based
Set-up: dose 30 mg/kg, route intraperitoneal
Conditions: in vivo
readoutName: Cmax (µM)
// return numeric value only (unit: µM, not printed)

## Input Using known records, supply Cmax for Cc1c(NC(=O)c2ccc(C(C)(C)C)cc2)cccc1-c1nc(Nc2ccc(C(=O)N3CCOCC3)cc2)c2nc[nH]c2n1
## Output 3.8

====

readoutName: IC50 (µM)
Express the result in µM but write the number alone.

## Input Report value: IC50, system: Tyrosine-protein kinase BTK (Homo sapiens), compound: Cn1cnc2c(Nc3ccc(C(=O)N4CCOCC4)cc3)nc(-c3cccc(NC(=O)c4ccc(C(C)(C)C)cc4)c3)cc21
Sequence (Q06187 whole entry): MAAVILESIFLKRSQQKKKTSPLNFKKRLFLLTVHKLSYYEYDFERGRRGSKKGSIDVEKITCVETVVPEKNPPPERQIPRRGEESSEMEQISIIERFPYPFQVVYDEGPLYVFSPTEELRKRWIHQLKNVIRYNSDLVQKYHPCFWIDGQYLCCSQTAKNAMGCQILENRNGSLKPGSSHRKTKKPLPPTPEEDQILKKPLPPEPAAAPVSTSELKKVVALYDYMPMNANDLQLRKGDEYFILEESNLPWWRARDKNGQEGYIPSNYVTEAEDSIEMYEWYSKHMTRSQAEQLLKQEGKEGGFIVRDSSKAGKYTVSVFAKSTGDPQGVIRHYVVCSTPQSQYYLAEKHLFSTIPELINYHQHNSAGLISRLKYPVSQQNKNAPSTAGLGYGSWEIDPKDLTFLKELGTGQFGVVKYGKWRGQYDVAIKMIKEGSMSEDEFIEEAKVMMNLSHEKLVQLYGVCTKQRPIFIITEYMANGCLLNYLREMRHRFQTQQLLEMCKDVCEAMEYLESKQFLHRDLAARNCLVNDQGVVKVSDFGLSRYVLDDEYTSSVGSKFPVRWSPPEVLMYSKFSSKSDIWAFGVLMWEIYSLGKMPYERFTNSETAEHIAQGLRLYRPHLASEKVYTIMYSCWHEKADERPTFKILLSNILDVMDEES
## Output 0.15

====

Assay: Half life in CD1 mouse at 30 mg/kg, ip
Format: ADME, organism-based
Set-up: dose 30 mg/kg, route intraperitoneal
Settings: in vivo
readoutName: half-life (h)
Report as a plain number; the unit h is understood.

## Input Tell us which half-life value is on record for Cc1c(NC(=O)c2ccc(C(C)(C)C)cc2)cccc1-c1nc(Nc2ccc(C(=O)N3CCOCC3)cc2)c2nc[nH]c2n1
## Output 4.3

meta.source: ChEMBL document CHEMBL3259754
